target: ScLsb4; assay: SPOT peptide array binding signal intensity (averaged, normalized) (arbitrary units (background-subtracted, floor 0; scale differs between SH3 domains)); higher = stronger binding of the SH3 domain to the peptide
Can you tell me SPOT peptide array binding signal intensity for the items I'm about to list?

Data point: `HKVLRPFLLRRLKKD` ; SPOT peptide array binding signal intensity = ≤ 0

// SPOT peptide array binding signal intensity value for `LTRRFPFLFPFDTRM` : ≤ 0

SPOT peptide array binding signal intensity reported for this binder `DTIDNVKSKIQDKEG` : ≤ 0
